- Tested on: normal primary NK cells, pool 1 (3 donors) (IL-2 2.5 ng/mL)
- measurement.notes: percent inhibition of viability; higher = more inhibition
- experimental.parameters: 72 h; 1000 nM
Rule: percent inhibition of viability below 20% gives satisfied, anything at or above gives not satisfied.

Here's what some known entries look like.
Request: Say whether its percent inhibition of viability is strictly beneath 20%. Entry: O=C(O)c1ccc(-c2c[nH]c3ncc(-c4ccccc4)cc23)cc1C1CCCC1 (max concentration tested 10000 nM)
Result: satisfied

Request: Decide: percent inhibition of viability of CC[C@]1(O)C[C@H]2CN(CCc3c([nH]c4ccccc34)[C@@](C(=O)OC)(c3cc4c(cc3OC)N(C=O)[C@H]3[C@@](O)(C(=O)OC)[C@H](OC(C)=O)[C@]5(CC)C=CCN6CC[C@]43[C@@H]65)C2)C1 [Vincristine] (max concentration tested 1000 nM) strictly below 20%?
Result: not satisfied

Request: Does the reported percent inhibition of viability of the following compound sit strictly below 20%? COc1cc(OC)c(/C=C/S(=O)(=O)Cc2ccc(OC)c(NCC(=O)O)c2)c(OC)c1 [Rigosertib] (max concentration tested 10000 nM)
Result: satisfied

Continuing:
Request: Check if percent inhibition of viability falls below 20% for N#CC1(c2ccc(NC(=O)c3cccnc3NCc3ccncc3)cc2)CCCC1 [Apatinib] (max concentration tested 10000 nM) .
Result: satisfied

====

- Tested on: YT (IL-2 2.5 ng/mL)
- measurement.notes: drug sensitivity score (DSS) (DSS units); higher = more sensitive; extreme values may be limits of the assay
- experimental.parameters: 72 h
Please note: Criterion met applies when drug sensitivity score is 4 or greater, and Criterion not met applies otherwise.

Request: API: above_or_equal(metric=drug sensitivity score, cutoff=4) for item N#Cc1ccc2[nH]c(O)c(-c3ccc(CN4CCOCC4)cn3)c2c1 [AZD-1080] (max concentration tested 10000 nM)
Result: Criterion not met

Request: Hi team, for Cn1cc(C2=C(c3cn(C4CCN(Cc5ccccn5)CC4)c4ccccc34)C(=O)NC2=O)c2ccccc21 [Enzastaurin] (max concentration tested 10000 nM) , is the recorded drug sensitivity score at or above 4?
Result: Criterion not met

Request: Does drug sensitivity score meet or surpass 4 for Cc1c(CN2CCN(C(=O)[C@H](C)O)CC2)sc2c(N3CCOCC3)nc(-c3cnc(N)nc3)nc12 [Apitolisib] (max concentration tested 10000 nM) ?
Result: Criterion met

Request: hey, is drug sensitivity score for this one >= 4? CC/C(=C(\c1ccc(O)cc1)c1ccc(OCCN(C)C)cc1)c1ccccc1 [4-hydroxytamoxifen] (max concentration tested 10000 nM)
Result: Criterion met

Request: API: above_or_equal(metric=drug sensitivity score, cutoff=4) for item NS(=O)(=O)OC[C@@H]1C[C@@H](n2ccc3c(N[C@H]4CCc5ccccc54)ncnc32)C[C@@H]1O [Pevonedistat] (max concentration tested 10000 nM)
Result: Criterion met

====

- System: normal primary NK cells, pool 2 (3 donors) (IL-2 2.5 ng/mL)
- measurement.notes: percent inhibition of viability; higher = more inhibition
- experimental.parameters: 72 h; 250 nM
Could you mark each record yes (1) if its percent inhibition of viability falls strictly under 20%, and no (0) if it equals or exceeds it?

Worked set:
Request: Lab log: compare recorded percent inhibition of viability with 20%; is it strictly lower for O=C(Nc1cc(Cl)cc2c1[nH]c1cnccc12)c1cccnc1 [PS-1145] (max concentration tested 25000 nM) ?
Result: yes (1)

Request: Report whether reported percent inhibition of viability is lower than 20% (strictly) for COC[C@H](NC(=O)c1cnc(C)s1)C(=O)N[C@@H](COC)C(=O)N[C@@H](Cc1ccccc1)C(=O)[C@@]1(C)CO1 [Oprozomib] (max concentration tested 2500 nM)
Result: no (0)

Request: Is the reported percent inhibition of viability for COc1cc(Nc2ncc(F)c(Nc3ccc4c(n3)N(COP(=O)(O)O)C(=O)C(C)(C)O4)n2)cc(OC)c1OC [Fostamatinib] (max concentration tested 2500 nM) strictly below 20%?
Result: yes (1)

Request: Problem: For the molecule COc1ccc2c(OCc3nnc4ccc(-c5ccccc5)nn34)ccnc2c1 [AMG-208] (max concentration tested 2500 nM) , is percent inhibition of viability under 20%?
Result: yes (1)

Request: is_below(percent inhibition of viability, 20%) for CN[C@@H](C)C(=O)N[C@H](C(=O)N1CCC[C@H]1c1nc(C(=O)c2ccc(F)cc2)cs1)C1CCCCC1 [LCL161] (max concentration tested 25000 nM) ?
Result: no (0)

Next:
Request: In plain terms, does CC(=O)OC[C@H]1O[C@@H]([S-])[C@H](OC(C)=O)[C@@H](OC(C)=O)[C@@H]1OC(C)=O.CCP(CC)CC.[Au+] [Auranofin] (max concentration tested 2500 nM) come in under 20% for percent inhibition of viability?
Result: no (0)
